src = ChEMBL document CHEMBL3124907

Molecular target: 5-hydroxytryptamine receptor 2A (Homo sapiens)
Test: Inhibition of 5-HT2A receptor (unknown origin) at 10 uM by radioligand binding assay relative to control
reported-metric: inhibition (%)

P. O=c1cc(CCCc2ccccc2)oc2cccc(O)c12
Q. O=c1cc(CCc2cccs2)oc2cccc(O)c12
R. O=c1cc(COc2ccccc2)oc2cccc(O)c12
S. O=c1cc(Cc2cccs2)oc2cccc(O)c12
### Prompt Rank the 4 compounds: largest inhibition first, smallest last. Provide your answer as the labels ordered per the instruction.
### Response P, Q, R, S
(P: 5.4%, Q: 1.4%, R: 0.2%, S: -4.5%)

A. O=c1cc(Cc2ccccc2)oc2cccc(O)c12
B. O=c1cc(CCCCc2ccccc2)oc2cccc(O)c12
### Prompt Given A and B , report the one with the higher recorded inhibition. Bench note: the answer is the label of the chosen record.
### Response B

---

Target: 5-hydroxytryptamine receptor 2C (Homo sapiens) (UniProt P28335)
Sequence (whole entry): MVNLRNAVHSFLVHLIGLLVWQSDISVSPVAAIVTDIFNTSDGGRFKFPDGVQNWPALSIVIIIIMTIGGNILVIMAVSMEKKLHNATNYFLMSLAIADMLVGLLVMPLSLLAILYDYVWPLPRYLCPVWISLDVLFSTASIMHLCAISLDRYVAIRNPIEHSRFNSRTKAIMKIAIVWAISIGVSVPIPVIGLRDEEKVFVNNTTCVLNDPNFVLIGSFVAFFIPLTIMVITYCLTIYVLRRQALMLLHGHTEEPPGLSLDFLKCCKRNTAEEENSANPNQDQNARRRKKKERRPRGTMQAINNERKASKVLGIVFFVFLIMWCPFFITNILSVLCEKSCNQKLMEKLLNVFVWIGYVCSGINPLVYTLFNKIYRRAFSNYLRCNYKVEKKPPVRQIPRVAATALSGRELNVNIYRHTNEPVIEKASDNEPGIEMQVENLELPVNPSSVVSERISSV
Test: Inhibition of 5-HT2C receptor (unknown origin) at 10 uM by radioligand binding assay relative to control
reported-metric: inhibition (%)

Previously resolved entries follow.
1. O=c1cc(COc2ccccc2)oc2cccc(O)c12: 7.8
2. O=c1cc(Cc2ccccc2)oc2cccc(O)c12: 24.8
3. O=c1cc(Cc2cccs2)oc2cccc(O)c12: 23.5
4. O=c1cc(CCCCc2ccccc2)oc2cccc(O)c12: 14.7

a. O=c1cc(CCc2cccs2)oc2cccc(O)c12
b. O=c1cc(CCCc2ccccc2)oc2cccc(O)c12
### Prompt // select label with min value of measured inhibition from [ a , b ] Choose, then provide that item's label.
### Response b
(b: 7.9%, a: 19.6%)

---

Target: UniProt P41595
Sequence (P41595 whole entry): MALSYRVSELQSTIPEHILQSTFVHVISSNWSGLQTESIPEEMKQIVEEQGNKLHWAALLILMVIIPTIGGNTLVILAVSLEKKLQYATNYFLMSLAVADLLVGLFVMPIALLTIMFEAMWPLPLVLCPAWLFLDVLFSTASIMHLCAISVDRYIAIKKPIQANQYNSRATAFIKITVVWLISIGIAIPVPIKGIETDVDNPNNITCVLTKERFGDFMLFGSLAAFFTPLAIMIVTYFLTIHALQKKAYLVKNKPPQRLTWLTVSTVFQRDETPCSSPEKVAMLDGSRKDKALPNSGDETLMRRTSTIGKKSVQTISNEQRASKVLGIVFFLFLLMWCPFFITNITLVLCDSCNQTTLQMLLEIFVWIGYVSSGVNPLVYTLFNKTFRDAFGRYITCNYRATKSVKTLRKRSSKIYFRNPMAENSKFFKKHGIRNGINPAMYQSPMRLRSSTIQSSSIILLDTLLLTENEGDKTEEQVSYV
Assay: Inhibition of 5-HT2B receptor (unknown origin) at 10 uM by radioligand binding assay relative to control
reported-metric: inhibition (%)

A selection of reference data follows.
1) O=c1cc(CCc2cccs2)oc2cccc(O)c12: 74.8
2) O=c1cc(Cc2cccs2)oc2cccc(O)c12: 31.5
3) O=c1cc(COc2ccccc2)oc2cccc(O)c12: 50

a. O=c1cc(Cc2ccccc2)oc2cccc(O)c12
b. O=c1cc(CCCCc2ccccc2)oc2cccc(O)c12
c. O=c1cc(CCCc2ccccc2)oc2cccc(O)c12
### Prompt Sort by inhibition, descending. Response field: labels, in requested order.
### Response c, b, a
